B1: tRNA (parent)
chain: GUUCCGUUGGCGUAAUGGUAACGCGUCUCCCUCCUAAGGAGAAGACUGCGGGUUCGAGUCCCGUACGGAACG

# Variants of: B1
# EXPERIMENTAL PROTOCOL: yeast fitness relative to wild type (ratio to wild type); higher = fitter; tRNA-Arg(CCU), competitive growth, 37 C, YPD
Variants at the floor of the assay were thinned out.
What yeast fitness was measured for each of the following?
Please give the numeric answer without any surrounding text.

yeast fitness lookup needed for U8C C27G A42G C60U U64A C66A G68A A69G , thanks.
0.543

Queued: U2C U3C U19A
0.629

Please do the same for G51A C60G as well.
0.596

How about this variant: A43C G58A
0.944

Another variant: U7G A15G U19C A21G G41A
0.535

And the next one, U13G C55A ?
0.502

// query: A43C C62G
0.76

Now try C5U U16C .
0.972

Please answer likewise for C27A G41C A43C G48A C66U
0.546

Try this variant next: C24A G51A
0.53

What about this variant? G12C C27A G56C
0.702

And then A20C G52C , what is it?
0.583

Another: G6A C22G
0.702

Ok, now G51A C66G
0.704

Can you handle C55G A69U next?
0.636

// next record U8A A14C
0.692

Now consider U32C A37C G38A G63A and answer again.
0.533

What do we get for G12C C46U C49G A70U ?
0.526

Try this variant too: A14G C62U
0.937

Next variant up: C46U C55U
0.823

Cool, now A42U A65C
0.81

Entry A45C G63A A69U please
0.793

Query C24A C60U next
0.543

One more variant: U2G G9C A20G A42C C46G C49U A69C
0.576

Subsequent entry: G9A G25C
0.931

Moving on to U13A A15U C24U A37U G67C
0.591

What do we get for C33U A69C ?
0.726

Would you mind doing C4G A36G as well?
0.939

Same read-out for C5G G12C C33U G68C ?
0.612

Entry A14U U16G U19A A42G please
0.512

What do you have for C29U C62U A70U ?
0.532

Next: U32A C49G C55U A69C
0.546

Also, C5U U7C U26A please.
0.677

And what about the variant C46U U59C ?
1.03

Input A36C A43C C66A
0.731

Follow-up item: C27U C29G
0.58

Param item: U16A U35C A45G G56C
0.602

Next variant: C27U G44A
0.887

Moving on to the next variant: U8A A40U A70C
0.547

Then what about the variant C4U C11U C30G G68C ?
0.593

Then what about the variant C29U C31A ?
0.609

Subsequent entry: C60U A69C
0.713

Quick one: U35G A45C
0.617

Then U13G C22U C30A ?
0.598

// next record U8A G10A A69U
0.542

For U19G A42U then?
0.991

Same again, this time with U3C G17A
0.831

Can you check C4G G6C A43U G48A C66G next?
0.512

Follow-up item: A20G G23A A65G
0.574
